# increase in endogenous cerebral concentrations of Nτ-methylhistamine values compiled below
targetOrSystem: type H3 central histamine receptors (Mus musculus)
Construct: the brains are removed, frozen in liquid nitrogen, weighed and homogenised; from tissue; host or cells: brain of living NMRI mice (oral dosing)
Sequence (P58406 whole entry): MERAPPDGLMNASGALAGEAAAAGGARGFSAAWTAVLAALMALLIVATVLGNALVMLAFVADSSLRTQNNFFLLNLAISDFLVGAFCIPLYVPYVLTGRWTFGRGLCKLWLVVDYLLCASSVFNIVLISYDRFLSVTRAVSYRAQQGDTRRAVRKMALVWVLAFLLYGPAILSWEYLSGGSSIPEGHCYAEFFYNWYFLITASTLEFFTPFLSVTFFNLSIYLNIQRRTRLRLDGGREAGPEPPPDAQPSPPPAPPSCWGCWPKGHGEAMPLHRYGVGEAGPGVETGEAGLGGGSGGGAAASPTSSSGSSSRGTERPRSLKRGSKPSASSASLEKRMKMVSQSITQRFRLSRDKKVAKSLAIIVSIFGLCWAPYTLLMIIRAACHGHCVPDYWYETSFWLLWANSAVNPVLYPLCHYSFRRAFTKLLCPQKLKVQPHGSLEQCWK
assayProtocol: Cerebral levels of Nτ-methylhistamine in the NMRI mouse (ex vivo H3 antagonist activity)
runParameters: 30 mg/kg PO, one hour after treatment, vs carrier
Procedure: The purpose of this study, which was carried out in accordance with the method of Taylor et al. (Biochem. Pharm., 1992, 44, 1261-1267), is to evaluate the ex vivo activity of the compounds of the present invention as antagonists of type H3 central histamine receptors. […] NMRI mice (18-20 g) are treated with compounds of the present invention or with their carrier (20 ml/kg) by the oral route. […] The aliquots are frozen in liquid nitrogen and stored at −80° C. until they are analysed. […]
The reply should contain only the number, in %.

Per the records, this compound ( CC(=O)Nc1ccc(OCCN2C[C@H]3C[C@H]3C2)cc1 [Example 5] ) has increase in endogenous cerebral concentrations of Nτ-methylhistamine equal to 200

Per the records, this compound ( CC(=O)N(C)c1ccc(OCCCN2C[C@H]3C[C@H]3C2)cc1.Cl [Example 13] ) has increase in endogenous cerebral concentrations of Nτ-methylhistamine equal to 303

Per the records, this compound ( COCC(=O)Nc1ccc(OCCCN2C[C@H]3C[C@H]3C2)cc1 [Example 14] ) has increase in endogenous cerebral concentrations of Nτ-methylhistamine equal to 266

Per the records, this compound ( CC(=O)Nc1ccc(OCCCCN2C[C@H]3C[C@H]3C2)cc1 [Example 6] ) has increase in endogenous cerebral concentrations of Nτ-methylhistamine equal to 210
